Numbers sourced from ChEMBL document CHEMBL1275345.

# Assay Text: Binding affinity to human adenosine A2 receptor
Observation Type: pKi
Scale for pKi: -log10 of concentration given in mol/L; no unit attached.

Consider O=C(Cc1cccc2ccccc12)Nc1nc2nn(CCCc3ccccc3)cc2c2nc(-c3ccco3)nn12 . Its measured pKi is 6.10

---

# Target Under Test: Adenosine receptor A2a (Homo sapiens)
# Sequence (P29274 whole entry): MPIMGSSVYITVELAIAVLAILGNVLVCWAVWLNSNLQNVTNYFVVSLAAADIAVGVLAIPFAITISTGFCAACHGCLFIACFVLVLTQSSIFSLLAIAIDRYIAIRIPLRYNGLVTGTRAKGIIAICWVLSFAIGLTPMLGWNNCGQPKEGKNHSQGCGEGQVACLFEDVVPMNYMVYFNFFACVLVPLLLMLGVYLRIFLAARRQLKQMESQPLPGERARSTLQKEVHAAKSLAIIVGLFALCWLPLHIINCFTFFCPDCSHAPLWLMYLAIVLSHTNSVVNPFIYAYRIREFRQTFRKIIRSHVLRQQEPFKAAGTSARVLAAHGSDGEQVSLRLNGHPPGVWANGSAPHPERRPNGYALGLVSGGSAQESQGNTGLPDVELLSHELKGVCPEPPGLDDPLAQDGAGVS
Observation Type: pKi
Scale for pKi: -log10 of concentration given in mol/L; no unit attached.

# Mol, Observation Type, Measured Number
measured = [
    ("Cc1nc2c(=O)n(Cc3ccccc3)nc(Cl)c2c2cc(-c3ccccc3)nn12", "pKi", 5.50),
]

Response field pKi (Adenosine receptor A2a (Homo sapiens)) for item CCCc1nc2c(=O)n(Cc3ccccc3)nc(-c3ccncc3)c2c2cc(-c3ccccc3)nn12 : 6.11

Response field pKi (Adenosine receptor A2a (Homo sapiens)) for item Cc1nn(Cc2ccccc2)c(=O)c2ncn3nc(-c4ccsc4)cc3c12 : 5.13

---

# Target Under Test: Adenosine receptor A1 (Homo sapiens)
# Assay Text: Displacement of [3H]DPCPX from human adenosine A1 receptor expressed in CHO-A1 cells at 10 uM after 60 mins
# Format: cell-based
Measured inhibition, listed per entry.

# annotated cases, reported inhibition shown
# Mol, Target Under Test, inhibition
records = [
    ("Cc1nc2c(SCc3ccccc3)nnc(-c3ccncc3)c2c2cc(-c3ccccc3)nn12", "Adenosine receptor A1 (Homo sapiens)", "< 50%"),
    ("Cc1nn(Cc2ccccc2)c(=O)c2nc(C)n3nccc3c12", "Adenosine receptor A1 (Homo sapiens)", "< 50%"),
]

With those in mind, consider the next molecule.
Consider Cc1nn(Cc2ccccc2)c(=O)c2nnn3nc(-c4ccccc4)cc3c12 . Its measured inhibition is < 50%

---

# Target Under Test: Adenosine receptor A3 (Homo sapiens)
# Sequence (whole entry): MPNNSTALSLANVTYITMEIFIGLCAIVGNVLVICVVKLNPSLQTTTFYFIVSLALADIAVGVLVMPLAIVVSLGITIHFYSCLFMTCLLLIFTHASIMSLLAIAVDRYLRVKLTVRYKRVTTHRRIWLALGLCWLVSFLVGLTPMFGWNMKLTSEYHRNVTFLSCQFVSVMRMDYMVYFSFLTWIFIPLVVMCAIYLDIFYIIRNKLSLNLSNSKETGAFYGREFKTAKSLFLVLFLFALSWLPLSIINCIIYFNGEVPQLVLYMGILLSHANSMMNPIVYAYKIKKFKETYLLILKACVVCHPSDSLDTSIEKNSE
# Assay Text: Displacement of [3H]NECA from human adenosine A3 receptor expressed in HeLa cells at 10 uM after 180 mins
# Type: cell-based
Activity calls are given as the source filed them. No cut-off for these calls is given here.
Observation Type: inhibition

# annotated cases, reported inhibition shown
# Mol, Observation Type, Result
rows = [
    ("Cc1nc2c(=O)n(Cc3ccccc3)nc(-c3ccccc3)c2c2cc(-c3ccccc3)nn12", "inhibition", "inactive"),
    ("CCc1nc2c(=O)n(Cc3ccccc3)nc(-c3cccnc3)c2c2cc(-c3ccccc3)nn12", "inhibition", "inactive"),
    ("Cc1nn(Cc2ccccc2)c(=O)c2ncn3nc(-c4ccsc4)cc3c12", "inhibition", "< 50%"),
    ("O=c1c2ncn3nc(-c4ccsc4)cc3c2c(-c2cccc(F)c2)nn1Cc1ccccc1", "inhibition", "inactive"),
]

With those in mind, consider the next compound.
Consider O=c1c2ncn3nc(-c4ccccc4)cc3c2c(-c2ccncc2)nn1Cc1ccccc1 . Its measured inhibition is inactive
